Experiment: Comparative kinetic solubility in phosphate buffer pH 7.4 (HPLC-UV)
Assay type: physicochemical
Details: aqueous buffer, kinetic from dmso stock, nominal 250 μM in 50 mM phosphate buffer pH 7.4, agitated 1 hour, filtered
Counter-ions that a name gives are not always drawn.
Reported Endpoint: solubility at 1 h (µM)

[1] CC(C)C[C@H](COP(=O)(O)O)Nc1nc(S[C@@H](C)c2ccccc2)nc2nc(N)sc12
[2] CC(C)C[C@H](CO)Nc1nc(S[C@@H](C)c2ccccc2)nc2nc(N)sc12 [Compound A •HCl]
Please indicate which has the smaller reported solubility at 1 h: 1 , or 2 . Answer by stating the label of the chosen item. 2

###

Experiment: Plasma concentration (AUC of plasma Compound A) in mice after intravenous and peroral administration
Format: in vivo
Conditions: male, CD1, mouse, plasma, po, 125 mg/kg, PO (oral gavage), 125 mg/kg (284 mol/kg), blood 0.083-24 hours
Structures can show the parent of a compound that is named as a salt.
Reported Endpoint: AUC (µM·h)
Field: numeric (µM·h). Do not append units.

Field request: AUC | item: CC(C)C[C@H](CO)Nc1nc(S[C@@H](C)c2ccccc2)nc2nc(N)sc12 [Compound A •HCl] 170

###

Test: Further stability studies: aqueous solutions stored 60 days at room temperature and/or 40° C. (HPLC-MS)
Type: physicochemical
Settings: aqueous solution 1.2 mg/mL, 40° C., 1d, 1n with Na2HPO3, 1q, 4f, 4g with DMSO and (2-hydroxypropyl)-β-cyclodextrin
Reported Endpoint: % Area by HPLC (60 days) (% Area)

>>> df
                                   compound  readout_value
0  CC(C)C[C@H](CO)Nc1nc(S[C@@H](C)c2ccc(Cl)cn2)nc2c1sc(=O)n2COP(=O)(O)O           82.2
1  CC(C)C[C@H](COP(=O)(O)O)Nc1nc(S[C@@H](C)c2ccc(Cl)cn2)nc2[nH]c(=O)sc12            100
2  CC(C)C[C@H](COP(=O)(O)OC(C)C)Nc1nc(S[C@@H](C)c2ccccc2)nc2nc(N)sc12            100
3  CC(C)C[C@H](COP(=O)(O)O)Nc1nc(SC(C)c2ccc(Cl)cn2)nc2nc(N)sc12 (some centres unmarked)           99.7
4  CC(C)C[C@H](COP(=O)(O)O)Nc1nc(SC(C)c2ccccc2F)nc2nc(N)sc12 (some centres unmarked)            100

###

Assay: Plasma concentration (AUC of plasma Compound A) in mice after intravenous and peroral administration
Assay type: in vivo
Conditions: male, CD1, mouse, plasma, iv, 25 mg/kg, blood 0.083-24 hours
Where a name gives a salt, the structure may show the parent alone.
Reported Endpoint: AUC (µM·h)
The figure you give is taken to be in µM·h; do not add the unit.

I would be grateful if you could share the reported AUC for CC(C)C[C@H](CO)Nc1nc(S[C@@H](C)c2ccccc2)nc2nc(N)sc12 [Compound A •HCl] . 50.1

###

Test: Plasma concentration (AUC of plasma Compound A) in mice after intravenous and peroral administration
Assay type: in vivo
Settings: male, CD1, mouse, plasma, po, 120 mg/kg, PO (oral gavage), 120 mg/kg (297 mol/kg), blood 0.083-24 hours
Reported Endpoint: AUC (µM·h)
Output spec: scalar in µM·h, unitless text.

What measured AUC goes with CC(C)C[C@H](CO)Nc1nc(S[C@@H](C)c2ccccc2)nc2nc(N)sc12 ? 92.6
